Conditions: 303.15 K; 101 kPa; Liquid; Vibrating tube method
mass density less than 1000 kg/m3 is class 1; mass density greater than or equal to 1000 kg/m3 is class 0.

As a guide, the following entries are already answered.
-- ask Lab note: confirm whether the reported mass density for this compound is below 1000 kg/m3, equality not counting. compound: OCCCO
-- reply class 0

-- ask Lab note: confirm whether the reported mass density for this compound is below 1000 kg/m3, equality not counting. compound: OCC(O)CO
-- reply class 0

Here's the next entry for you.
-- ask Lab note: confirm whether the reported mass density for this compound is below 1000 kg/m3, equality not counting. compound: CCCO
-- reply class 1

* * *

Conditions: 288.15 K; 101 kPa; Liquid; Vibrating tube method
Numbers after ± are expanded uncertainties.
reported-endpoint: mass density

mass density measured on c1ccncc1 = 988.061 ± 0.12 kg/m3

mass density measured on OCCCO = 1056.12 ± 0.95 kg/m3

mass density measured on OCC(O)CO = 1264.08 ± 0.22 kg/m3

mass density measured on CCCO = 807.947 ± 0.15 kg/m3

Now for the molecule whose mass density we want.
mass density measured on CC(O)CO (stereo not given) = 1040.08 ± 0.14 kg/m3

* * *

Known refractive index of a selection of compounds
Assay: refractive index (Na D-line) (dimensionless)
Conditions: 323.15 K; 101.33 kPa; Liquid; Standard Abbe refractometry
// print number alone

refractive index measured on OCCCO [propan-1,3-diol] = 1.43099

refractive index measured on CC(O)CO (stereo not given) [1,2-propanediol] = 1.4223

refractive index measured on OCC(O)CO [glycerol] = 1.46674

refractive index measured on c1ccncc1 [pyridine] = 1.49219

refractive index measured on CCCO [propan-1-ol] = 1.37231

* * *

Assay: refractive index (Na D-line) (dimensionless)
Settings: 308.15 K; 101.33 kPa; Liquid; Standard Abbe refractometry
reported-endpoint: refractive index
// print number alone

Solved cases (3 shown):
refractive index measured on OCC(O)CO = 1.47048

refractive index measured on OCCCO = 1.43526

refractive index measured on CCCO = 1.37918

Continuing:
refractive index measured on c1ccncc1 = 1.50048

refractive index measured on CC(O)CO (stereo not given) = 1.42751

* * *

Details: 308.15 K; 101 kPa; Liquid; Vibrating tube method
Numbers after ± are expanded uncertainties.
Known mass density of a selection of compounds
Report field: quantity (unit follows the number).

Solved cases (2 shown):
mass density measured on OCC(O)CO = 1251.68 ± 0.21 kg/m3

mass density measured on c1ccncc1 = 967.913 ± 0.12 kg/m3

Continuing:
mass density measured on CC(O)CO (stereo not given) = 1025.34 ± 0.13 kg/m3

mass density measured on OCCCO = 1043.64 ± 0.93 kg/m3

mass density measured on CCCO = 791.84 ± 0.15 kg/m3

* * *

Conditions: 298.15 K; 101 kPa; Liquid; Vibrating tube method
mass density less than 1000 kg/m3 is met; mass density greater than or equal to 1000 kg/m3 is not met.

-- ask Lab note: confirm whether the reported mass density for this molecule is below 1000 kg/m3, equality not counting. molecule: CC(O)CO (stereo not given)
-- reply not met

-- ask Lab note: confirm whether the reported mass density for this molecule is below 1000 kg/m3, equality not counting. molecule: CCCO
-- reply met

-- ask Lab note: confirm whether the reported mass density for this molecule is below 1000 kg/m3, equality not counting. molecule: OCC(O)CO
-- reply not met

-- ask Lab note: confirm whether the reported mass density for this molecule is below 1000 kg/m3, equality not counting. molecule: OCCCO
-- reply not met
